Listing of recorded mass density by entry.
# condition description: 318.15 K; 101.33 kPa; Liquid; Vibrating tube method
readout name: mass density (kg/m3)

>>> value_measured("CC(C)OC(=O)CC[C@H]([NH3+])C(=O)OC(C)C.CCCCCCCCCCCCOS(=O)(=O)[O-]")
1034.81
>>> value_measured("CC(C)COC(=O)C[NH3+].CCCCCCCCCCCCOS(=O)(=O)[O-] [2-isobutoxy-2-oxoethan-1-aminium dodecyl sulfate]")
1002.38
>>> value_measured("CC(C)OC(=O)C[NH3+].CCCCCCCCCCCCOS(=O)(=O)[O-] [2-isopropoxy-2-oxoethan-1-aminium dodecyl sulfate]")
1014.16
>>> value_measured("CC(C)COC(=O)[C@H](C)[NH3+].CCCCCCCCCCCCOS(=O)(=O)[O-] [(S)-1-isobutoxy-1-oxopropan-2-aminium dodecyl sulfate]")
1026.31
>>> value_measured("CC(C)OC(=O)[C@@H]1CCC[NH2+]1.CCCCCCCCCCCCOS(=O)(=O)[O-] [(S)-2-(isopropoxycarbonyl)pyrrolidin-1-ium dodecyl sulfate]")
1032.27
>>> value_measured("CC(C)OC(=O)[C@@H]([NH3+])C(C)C.CCCCCCCCCCCCOS(=O)(=O)[O-]")
1011.36
>>> value_measured("CC(C)COC(=O)[C@@H]1CCC[NH2+]1.CCCCCCCCCCCCOS(=O)(=O)[O-] [(S)-2-(isobutoxycarbonyl)pyrrolidinium dodecyl sulfate]")
1021.27
